binders and their reported Kd
Target: HA protein from H1N1 A/Solomon Islands/3/2006 (Influenza A virus (A/Solomon …, UniProt A7Y8I1, strain))
Assay: BLI
Settings: both partners purified
Hi! Could you send only the number? It should be in µM, unit omitted.

CR9114 gHC Fab VL A96S (Fab, V domains shown, Kabat numbering; source: Expi293F, co-transfected, purified (CaptureSelect CH1-XL)) VH: QVQLVQSGAEVKKPGSSVKVSCKASGGTFSSYAISWVRQAPGQGLEWMGGIIPIFGTANYAQKFQGRVTITADKSTSTAYMELSSLRSEDTAVYYCARHGNYYYYYGMDVWGQGTTVTVSS VL: SYVLTQPPAVSGTPGQRVTISCSGSDSNIGRRSVNWYQQFPGTAPKLLIYSNDQRPSVVPDRFSGSKSGTSASLAISGLQSEDEAEYYCAAWDDSLKGSVFGGGTQLTVL = 1.6

Qu. Please give the documented Kd of CR9114 gHC Fab VL A96R (Fab, V domains shown, Kabat numbering; source: Expi293F, co-transfected, purified (CaptureSelect CH1-XL)) VH: QVQLVQSGAEVKKPGSSVKVSCKASGGTFSSYAISWVRQAPGQGLEWMGGIIPIFGTANYAQKFQGRVTITADKSTSTAYMELSSLRSEDTAVYYCARHGNYYYYYGMDVWGQGTTVTVSS VL: SYVLTQPPAVSGTPGQRVTISCSGSDSNIGRRSVNWYQQFPGTAPKLLIYSNDQRPSVVPDRFSGSKSGTSASLAISGLQSEDEAEYYCAAWDDSLKGRVFGGGTQLTVL
Ans. 21.5
